Assay: in vivo
Conditions: rat, po, 20 mg/kg, Oral Bioavailability (F)
Property name: bioavailability

O=C1N(c2ccccc2)c2ccccc2C1(Cc1ccncc1)Cc1ccncc1 [1'] | 9.1%

###

Experiment: in vivo
Settings: rat, po, 20 mg/kg
Property name: AUC at 3 h (ng·h/mL)

O=C1N(c2ccccc2)c2ccccc2C1(Cc1ccncc1)Cc1ccncc1 [1'] | 1150

###

Assay: in vivo
Settings: rat, 1 mg/kg
Experimental: Male Lewis rats weighing approximately 300 g were used. […] This dose was administered by gavage. The nasal dose of (1') was administered to rats after surgical isolation of the nasal cavity. […] Detection was by ultraviolet (uv) absorbance at 252 nm. […] Systemic bioavailability after oral and nasal doses was calculated for each rat as the ratio of AUC^oral or ^nasal /AUC^iv, using the average AUC^iv and correcting for the differences in dose. Values are expressed as percentage (%) of dose.
Property name: Tmax

O=C1N(c2ccccc2)c2ccccc2C1(Cc1ccncc1)Cc1ccncc1 | ≤ 10 min
